- ASSAY TARGET: P450 2A13 (Homo sapiens, UniProt Q16696)
- Sequence (Q16696 whole entry): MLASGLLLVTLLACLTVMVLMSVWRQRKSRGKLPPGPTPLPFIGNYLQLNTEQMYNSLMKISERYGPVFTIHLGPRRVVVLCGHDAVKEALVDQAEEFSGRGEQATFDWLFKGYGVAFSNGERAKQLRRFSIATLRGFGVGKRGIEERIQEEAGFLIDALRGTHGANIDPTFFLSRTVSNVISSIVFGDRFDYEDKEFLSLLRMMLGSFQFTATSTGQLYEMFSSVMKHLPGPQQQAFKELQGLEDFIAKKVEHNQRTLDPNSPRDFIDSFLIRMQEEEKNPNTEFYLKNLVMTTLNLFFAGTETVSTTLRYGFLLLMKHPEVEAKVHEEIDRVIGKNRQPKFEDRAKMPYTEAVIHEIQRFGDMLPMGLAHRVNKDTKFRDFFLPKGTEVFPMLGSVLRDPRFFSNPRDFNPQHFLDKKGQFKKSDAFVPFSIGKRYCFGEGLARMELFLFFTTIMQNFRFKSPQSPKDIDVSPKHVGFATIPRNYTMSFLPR
- TEST SUMMARY: Oxidation by P450 2A13 bicistronic membranes, HPLC
- TEST CONTEXT: product peaks only with NADPH-generating system
READOUT KIND: metabolism (HPLC)

Please review the entries below; each comes with its answer.
- STRUCTURE NOTATION: "CC#Cc1ccc(-c2ccccc2)cc1"
  metabolism (HPLC): "not detected"
- STRUCTURE NOTATION: "C#Cc1ccc2ccccc2c1"
  metabolism (HPLC): "yes"
- STRUCTURE NOTATION: "C#Cc1cc2ccccc2c2ccccc12"
  metabolism (HPLC): "not detected"
- STRUCTURE NOTATION: "C#Cc1ccc2ccc3ccccc3c2c1"
  metabolism (HPLC): "yes"

Return reported metabolism (HPLC). Input compound: C#Cc1ccc2c(ccc3ccccc32)c1 yes

---

- ASSAY TARGET: P450 2A13 (Homo sapiens)
- TEST SUMMARY: Oxidation by P450 2A13 bicistronic membranes, HPLC
- TEST CONTEXT: product peaks only with NADPH-generating system
READOUT KIND: metabolism (HPLC)

- COMPOUND: "C#CCOc1ccccc1-c1ccccc1OCC#C [22BDPE, 2,2′-biphenyl dipropagyl ether]"
  metabolism (HPLC): "not detected"
- COMPOUND: "C#CCOCc1ccc(-c2ccccc2)cc1 [4BMPE, 4-biphenyl methyl propargyl ether]"
  metabolism (HPLC): "not detected"
- COMPOUND: "CC#Cc1cc2ccccc2c2ccccc12 [9PPh, 9-(1-propynyl)phenanthrene]"
  metabolism (HPLC): "not detected"
- COMPOUND: "c1ccc(-c2ccccc2)cc1 [biphenyl]"
  metabolism (HPLC): "yes"

# evaluate next
Tell us which metabolism (HPLC) value is on record for C#CCOCc1ccccc1-c1ccccc1 [2BMPE, 2-biphenyl methyl propargyl ether] not detected

---

- ASSAY TARGET: P450 2A6 (Homo sapiens, UniProt P11509)
- Sequence (P11509 whole entry): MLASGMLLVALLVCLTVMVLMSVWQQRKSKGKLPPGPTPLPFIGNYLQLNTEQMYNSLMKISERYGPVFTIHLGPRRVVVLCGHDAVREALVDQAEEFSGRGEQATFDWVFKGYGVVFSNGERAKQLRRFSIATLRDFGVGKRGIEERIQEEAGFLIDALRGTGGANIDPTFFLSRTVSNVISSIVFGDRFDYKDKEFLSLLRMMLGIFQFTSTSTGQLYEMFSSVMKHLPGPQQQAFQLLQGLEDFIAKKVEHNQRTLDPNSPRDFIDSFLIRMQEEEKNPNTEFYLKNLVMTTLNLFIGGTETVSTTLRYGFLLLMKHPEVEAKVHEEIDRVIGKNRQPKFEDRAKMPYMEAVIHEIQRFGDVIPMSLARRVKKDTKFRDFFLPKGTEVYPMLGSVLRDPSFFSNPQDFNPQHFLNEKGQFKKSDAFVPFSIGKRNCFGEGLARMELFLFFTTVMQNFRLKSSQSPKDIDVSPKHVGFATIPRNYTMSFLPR
- TEST SUMMARY: Oxidation by P450 2A6 bicistronic membranes, HPLC
- TEST CONTEXT: product peaks only with NADPH-generating system
READOUT KIND: metabolism (HPLC)

- COMPOUND: "c1ccc(-c2ccccc2)cc1 [biphenyl]"
  metabolism (HPLC): "yes"
- COMPOUND: "CC#Cc1ccc2c(ccc3ccccc32)c1 [2PPh, 2-(1-propynyl)phenanthrene]"
  metabolism (HPLC): "yes"
- COMPOUND: "C#Cc1ccc2ccccc2c1 [2EN, 2-ethynylnaphthalene]"
  metabolism (HPLC): "yes"
- COMPOUND: "C#CCOc1ccc(-c2ccccc2)cc1 [4BPE, 4-biphenyl propargyl ether]"
  metabolism (HPLC): "yes"
- COMPOUND: "C#Cc1ccc2ccc3ccccc3c2c1 [3EPh, 3-ethynylphenanthrene]"
  metabolism (HPLC): "yes"
- COMPOUND: "C#CCOc1ccc(-c2ccc(OCC#C)cc2)cc1 [44BDPE, 4,4′-biphenyl dipropargyl ether]"
  metabolism (HPLC): "not detected"
- COMPOUND: "C#Cc1ccc(-c2ccccc2)cc1 [4EB, 4-ethynylbiphenyl]"
  metabolism (HPLC): "not detected"
- COMPOUND: "c1ccc2c(c1)ccc1ccccc12 [phenanthrene]"
  metabolism (HPLC): "yes"

We now examine a further compound.
Look up and state reported metabolism (HPLC) for C#Cc1ccc2c(ccc3ccccc32)c1 [2EPh, 2-ethynylphenanthrene] yes

---

- ASSAY TARGET: P450 2A13 (Homo sapiens, UniProt Q16696)
- TEST SUMMARY: Oxidation by P450 2A13 bicistronic membranes, HPLC
- TEST CONTEXT: product peaks only with NADPH-generating system
READOUT KIND: metabolism (HPLC)

- STRUCTURE NOTATION: "C#Cc1ccc(-c2ccccc2)cc1"
  ASSAY TARGET: "P450 2A13 (Homo sapiens, UniProt Q16696)"
  metabolism (HPLC): "not detected"
- STRUCTURE NOTATION: "c1ccc2c(c1)ccc1ccccc12"
  ASSAY TARGET: "P450 2A13 (Homo sapiens, UniProt Q16696)"
  metabolism (HPLC): "yes"
- STRUCTURE NOTATION: "C#CCOc1ccc(-c2ccc(OCC#C)cc2)cc1"
  ASSAY TARGET: "P450 2A13 (Homo sapiens, UniProt Q16696)"
  metabolism (HPLC): "not detected"
- STRUCTURE NOTATION: "CC#Cc1ccc2ccc3ccccc3c2c1"
  ASSAY TARGET: "P450 2A13 (Homo sapiens, UniProt Q16696)"
  metabolism (HPLC): "yes"
- STRUCTURE NOTATION: "CCC#Cc1ccc(-c2ccccc2)cc1"
  ASSAY TARGET: "P450 2A13 (Homo sapiens, UniProt Q16696)"
  metabolism (HPLC): "not detected"

Please indicate metabolism (HPLC) recorded for C#CCOc1ccc(-c2ccccc2)cc1 yes

Name the recorded metabolism (HPLC) of the item CC#Cc1ccc2c(ccc3ccccc32)c1 in your answer. yes

For C#CCOc1ccccc1-c1ccccc1 , write its metabolism (HPLC). yes

The reported numbers originate from paper PMC5293596.
